system-under-test: UniProtKB P08588
Rule: measured EC50 below 300 nM gets Fulfilled; anything equal to or greater than 300 nM gets Not fulfilled.

I'd appreciate it if you could check whether O=C(Cc1ccccc1)Nc1ccc(CCNC[C@H](O)COc2ccc(O)cc2)cc1 has EC50 smaller than 300 nM.
Not fulfilled

Again, but for NC(C(=O)Nc1ccc(CCNC[C@H](O)COc2ccc(O)cc2)cc1)c1ccccc1 (stereo not given in full)
Not fulfilled

Again, but for O=C(Cc1ccc(Cl)cc1)Nc1ccc(CCNC[C@H](O)COc2ccc(O)cc2)cc1
Fulfilled

Again, but for COc1ccccc1CC(=O)Nc1ccc(CCNC[C@H](O)COc2ccc(O)cc2)cc1
Not fulfilled

Again, but for O=C(Cc1ccncc1)Nc1ccc(CCNC[C@H](O)COc2ccc(O)cc2)cc1
Fulfilled

Again, but for O=C(Cc1cccc(Cl)c1)Nc1ccc(CCNC[C@H](O)COc2ccc(O)cc2)cc1
Fulfilled

====

Parameter pEC50: see the listing below.
system-under-test: Beta-3 adrenergic receptor (Homo sapiens, UniProt P13945)
Sequence (P13945 whole entry): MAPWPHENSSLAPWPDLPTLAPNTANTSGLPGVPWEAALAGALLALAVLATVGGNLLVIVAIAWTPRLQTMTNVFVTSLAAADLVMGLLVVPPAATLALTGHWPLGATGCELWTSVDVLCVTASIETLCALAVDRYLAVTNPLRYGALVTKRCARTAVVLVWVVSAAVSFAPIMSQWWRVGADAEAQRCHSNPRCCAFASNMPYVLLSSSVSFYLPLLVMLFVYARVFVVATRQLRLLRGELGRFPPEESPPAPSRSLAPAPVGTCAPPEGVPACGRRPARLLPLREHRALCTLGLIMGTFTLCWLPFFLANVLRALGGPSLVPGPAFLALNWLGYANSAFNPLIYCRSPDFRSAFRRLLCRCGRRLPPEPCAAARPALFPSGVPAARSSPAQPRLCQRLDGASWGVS
assay-remarks: Agonist activity at human cloned adrenergic beta3 receptor expressed in CHO cells assessed as increase in cAMP production after 2 days by radioimmunoassay
Assay type: functional, cell-based
FYI, pEC50 means -log10 of a concentration in mol per litre.

Example cases with answers are listed next.
O=C(Cc1ncccn1)Nc1ccc(CCNC[C@H](O)COc2ccc(O)cc2)cc1
6.96
O=C(Cc1ccsc1)Nc1ccc(CCNC[C@H](O)COc2ccc(O)cc2)cc1
6.26
O=C(Cc1cc2ccccc2cn1)Nc1ccc(CCNC[C@H](O)COc2ccc(O)cc2)cc1
6.85
O=C(Cc1cccnc1)Nc1ccc(CCNC[C@H](O)COc2ccc(O)cc2)cc1
5.82
O=C(Cc1cccc2ccccc12)Nc1ccc(CCNC[C@H](O)COc2ccc(O)cc2)cc1
6.33

Lookup: pEC50 / Beta-3 adrenergic receptor (Homo sapiens, UniProt P13945) / COc1ccc(CC(=O)Nc2ccc(CCNC[C@H](O)COc3ccc(O)cc3)cc2)cc1
5.77

Again, but for O=C(Cc1ccccc1)Nc1ccc(CCNC[C@H](O)COc2ccc(O)cc2)cc1
5.77

====

pEC50: −log10 of the molar value.
Observed pEC50 values for Beta-2 adrenergic receptor (Homo sapiens, UniProt P07550) are listed in what follows.

Example cases with answers are listed next.
O=C(Nc1ccc(CCNC[C@H](O)COc2ccc(O)cc2)cc1)C(c1ccccc1)c1ccccc1
< 4.00
O=C(Cc1ccc(Cl)cc1)Nc1ccc(CCNC[C@H](O)COc2ccc(O)cc2)cc1
< 4.00

Which measured pEC50 value corresponds to O=C(Cc1ccccc1Cl)Nc1ccc(CCNC[C@H](O)COc2ccc(O)cc2)cc1 ?
< 4.00

====

system-under-test: Beta-3 adrenergic receptor (Homo sapiens, UniProt P13945)
assay-remarks: Agonist activity at human cloned adrenergic beta3 receptor expressed in CHO cells assessed as increase in cAMP production after 2 days by radioimmunoassay
Format: functional, cell-based
Parameter EC50: see the listing below.
Please reply with the bare figure in µM and do not write the unit itself.

Example cases with answers are listed next.
NC(C(=O)Nc1ccc(CCNC[C@H](O)COc2ccc(O)cc2)cc1)c1ccccc1 (stereo not given in full)
0.96
O=C(Cc1cccc(Cl)c1)Nc1ccc(CCNC[C@H](O)COc2ccc(O)cc2)cc1
0.89
O=C(CC1C=Nc2ccccc21)Nc1ccc(CCNC[C@H](O)COc2ccc(O)cc2)cc1 (stereo not given in full)
0.49

Which measured EC50 value corresponds to O=C(Cc1ccc(Cl)cc1)Nc1ccc(CCNC[C@H](O)COc2ccc(O)cc2)cc1 ?
1.2

Again, but for COc1ccccc1CC(=O)Nc1ccc(CCNC[C@H](O)COc2ccc(O)cc2)cc1
0.36

====

system-under-test: Beta-3 adrenergic receptor (Homo sapiens)
assay-remarks: Agonist activity at human cloned adrenergic beta3 receptor expressed in CHO cells assessed as increase in cAMP production after 2 days by radioimmunoassay
Format: functional, cell-based
Parameter EC50: see the listing below.
Please reply with the bare figure in µM and do not write the unit itself.

Example cases with answers are listed next.
O=C(Nc1ccc(CCNC[C@H](O)COc2ccc(O)cc2)cc1)C(c1ccccc1)c1ccccc1
0.12
O=C(Cc1ccc2ccccc2n1)Nc1ccc(CCNC[C@H](O)COc2ccc(O)cc2)cc1
0.65
O=C(Cc1cccs1)Nc1ccc(CCNC[C@H](O)COc2ccc(O)cc2)cc1
0.5

Lookup: EC50 / Beta-3 adrenergic receptor (Homo sapiens) / O=C(Cc1ccncc1)Nc1ccc(CCNC[C@H](O)COc2ccc(O)cc2)cc1
0.52

Again, but for O=C(Cc1ccccn1)Nc1ccc(CCNC[C@H](O)COc2ccc(O)cc2)cc1
0.29

Again, but for O=C(Cc1ccccc1Cl)Nc1ccc(CCNC[C@H](O)COc2ccc(O)cc2)cc1
0.74

Again, but for O=S(=O)(Nc1ccc(CCNC[C@H](O)COc2ccc(O)cc2)cc1)c1ccccc1
0.078

Again, but for O=C(Cc1ccc2ccccc2c1)Nc1ccc(CCNC[C@H](O)COc2ccc(O)cc2)cc1
0.24

====

system-under-test: Beta-1 adrenergic receptor (Homo sapiens, UniProt P08588)
Sequence (P08588 whole entry): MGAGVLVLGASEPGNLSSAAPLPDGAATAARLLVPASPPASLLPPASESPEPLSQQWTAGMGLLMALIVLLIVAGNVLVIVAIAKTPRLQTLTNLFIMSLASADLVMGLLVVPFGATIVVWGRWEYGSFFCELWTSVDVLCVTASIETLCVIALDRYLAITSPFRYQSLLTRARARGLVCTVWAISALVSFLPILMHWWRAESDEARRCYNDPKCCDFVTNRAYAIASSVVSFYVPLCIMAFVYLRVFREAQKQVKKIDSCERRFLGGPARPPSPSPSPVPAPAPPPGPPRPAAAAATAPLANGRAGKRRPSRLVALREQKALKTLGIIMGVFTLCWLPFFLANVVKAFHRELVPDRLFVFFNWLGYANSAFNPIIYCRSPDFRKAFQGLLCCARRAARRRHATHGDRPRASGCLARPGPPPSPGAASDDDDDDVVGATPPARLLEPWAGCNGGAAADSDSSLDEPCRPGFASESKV
Parameter EC50: see the listing below.
Answer with the value and then the unit.

O=C(Cc1ccsc1)Nc1ccc(CCNC[C@H](O)COc2ccc(O)cc2)cc1
490 nM
O=C(CC1C=Nc2ccccc21)Nc1ccc(CCNC[C@H](O)COc2ccc(O)cc2)cc1 (some centres undefined)
550 nM
O=C(Nc1ccc(CCNC[C@H](O)COc2ccc(O)cc2)cc1)C(O)c1ccccc1 (some centres undefined)
590 nM

API: the following record is the query input.
Which measured EC50 value corresponds to O=C(Cc1cnccn1)Nc1ccc(CCNC[C@H](O)COc2ccc(O)cc2)cc1 ?
3100 nM

====

system-under-test: UniProtKB P08588
metric: EC50

COc1ccc(CC(=O)Nc2ccc(CCNC[C@H](O)COc3ccc(O)cc3)cc2)cc1
0.28 µM
O=C(Nc1ccc(CCNC[C@H](O)COc2ccc(O)cc2)cc1)C(c1ccccc1)c1ccccc1
0.18 µM
O=C(Cc1cc2ccccc2cn1)Nc1ccc(CCNC[C@H](O)COc2ccc(O)cc2)cc1
0.35 µM
O=C(Cc1cccc2ccccc12)Nc1ccc(CCNC[C@H](O)COc2ccc(O)cc2)cc1
0.6 µM

API: the following record is the query input.
Lookup: EC50 / UniProtKB P08588 / O=C(Cc1cccnc1)Nc1ccc(CCNC[C@H](O)COc2ccc(O)cc2)cc1
0.91 µM

====

Parameter EC50: see the listing below.
system-under-test: Beta-1 adrenergic receptor (Homo sapiens)
Please reply with the bare figure in nM and do not write the unit itself.

Which measured EC50 value corresponds to O=C(Cc1ccccn1)Nc1ccc(CCNC[C@H](O)COc2ccc(O)cc2)cc1 ?
2700

Again, but for O=C(Cc1cccs1)Nc1ccc(CCNC[C@H](O)COc2ccc(O)cc2)cc1
550

Again, but for O=C(Cc1ccc2ccccc2n1)Nc1ccc(CCNC[C@H](O)COc2ccc(O)cc2)cc1
1700

Again, but for O=C(Cc1ccc2ccccc2c1)Nc1ccc(CCNC[C@H](O)COc2ccc(O)cc2)cc1
150

====

system-under-test: Beta-3 adrenergic receptor (Homo sapiens, UniProt P13945)
assay-remarks: Agonist activity at human cloned adrenergic beta3 receptor expressed in CHO cells assessed as increase in cAMP production after 2 days by radioimmunoassay
Type: functional, cell-based
metric: EC50
Answer with the value and then the unit.

Example cases with answers are listed next.
COc1cccc(CC(=O)Nc2ccc(CCNC[C@H](O)COc3ccc(O)cc3)cc2)c1
560 nM
O=C(Cc1cnccn1)Nc1ccc(CCNC[C@H](O)COc2ccc(O)cc2)cc1
83 nM

Which measured EC50 value corresponds to O=C(Nc1ccc(CCNC[C@H](O)COc2ccc(O)cc2)cc1)C(O)c1ccccc1 (stereo partly drawn) ?
960 nM

====

Observed EC50 values for Beta-1 adrenergic receptor (Homo sapiens, UniProt P08588) are listed in what follows.
Please reply with the bare figure in nM and do not write the unit itself.

Example cases with answers are listed next.
COc1cccc(CC(=O)Nc2ccc(CCNC[C@H](O)COc3ccc(O)cc3)cc2)c1
710
O=C(Cc1ccccc1Cl)Nc1ccc(CCNC[C@H](O)COc2ccc(O)cc2)cc1
720

Which measured EC50 value corresponds to O=S(=O)(Nc1ccc(CCNC[C@H](O)COc2ccc(O)cc2)cc1)c1ccccc1 ?
1600
